# assay_notes: Inhibition of human Shh-induced mouse C3H10T1/2 cell differentiation after 48 hrs by alkaline phosphatase reporter assay
readout_name: IC50 (nM)
Kindly answer with a numeric value in nM, unit omitted.

Ask | If you can, please state the reported IC50 value of `CC1=C2C[C@H]3[C@@H](CC=C4C[C@@H](O)CC[C@@]43C)[C@@H]2CC[C@]12O[C@@H]1C[C@H](C)CN[C@H]1[C@H]2C` .
Reply | 600

====

Kindly supply the reported pIC50 values for the records listed here.
# assay_notes: Inhibition of Smo in mouse C3H10T1/2 cells assessed as inhibition of human Shh-induced cell differentiation after 48 hrs by alkaline phosphatase reporter assay
Units for pIC50: none; it is -log10 of a concentration expressed in mol/L.

Ask | If you can, please state the reported pIC50 value of `CC(C)(C)OC(=O)C[C@@H]1C/C=C/CCC(=O)N[C@H](c2ccccc2)COC1=O` .
Reply | 5.15

Ask | If you can, please state the reported pIC50 value of `O=C(C[C@@H]1C/C=C/CCC(=O)OC[C@@H]2CCCN2C1=O)NCc1ccc(Cl)cc1` .
Reply | 4.82

Ask | If you can, please state the reported pIC50 value of `O=C(C[C@@H]1C/C=C/C[C@H](Cc2ccccc2)C(=O)N[C@H](c2ccccc2)COC1=O)NCc1ccc(Cl)cc1` .
Reply | 5.22

Ask | If you can, please state the reported pIC50 value of `CN1C[C@@H](c2ccccc2)OC(=O)CC/C=C/C[C@@H](Cc2ccc(Cl)cc2)C1=O` .
Reply | 5.10

Ask | If you can, please state the reported pIC50 value of `C[C@@H]1NC(=O)[C@H](CC(=O)NCc2ccc(Cl)cc2)C/C=C/CCC(=O)O[C@@H]1c1ccccc1` .
Reply | 4.82

Ask | If you can, please state the reported pIC50 value of `C[C@H]1NC(=O)[C@H](CC(=O)NCc2ccc(Cl)cc2)C/C=C/CCC(=O)O[C@@H]1c1ccccc1` .
Reply | 4.96

Ask | If you can, please state the reported pIC50 value of `C[C@H]1[C@@H](c2ccccc2)OC(=O)CCCCC[C@@H](CC(=O)NCc2ccc(Cl)cc2)C(=O)N1C` .
Reply | 4.96

Ask | If you can, please state the reported pIC50 value of `O=C(C[C@@H]1C/C=C/CCC(=O)N[C@H](c2ccc(Cl)cc2)COC1=O)NCc1ccc(Cl)cc1` .
Reply | 6.22

Ask | If you can, please state the reported pIC50 value of `C[C@H]1C/C=C/C[C@@H](CC(=O)NCc2ccc(Cl)cc2)C(=O)OC[C@@H](c2ccccc2)NC1=O` .
Reply | 5.10

Ask | If you can, please state the reported pIC50 value of `O=C(C[C@@H]1C/C=C/CCC(=O)N[C@H](Cc2ccccc2)COC1=O)NCc1ccc(Cl)cc1` .
Reply | 5.40

Ask | If you can, please state the reported pIC50 value of `O=C(C[C@@H]1C/C=C/CCC(=O)N[C@H](c2ccccc2)COC1=O)NCc1ccc(Cl)cc1` .
Reply | 5.30

Ask | If you can, please state the reported pIC50 value of `O=C(C[C@@H]1C/C=C/CCC(=O)N[C@@H](c2ccccc2)COC1=O)NCc1ccc(Cl)cc1` .
Reply | 4.70

Ask | If you can, please state the reported pIC50 value of `O=C(C[C@@H]1C/C=C/CCC(=O)O[C@H](c2ccccc2)CNC1=O)NCCCC(F)(F)F` .
Reply | 5.40

Ask | If you can, please state the reported pIC50 value of `CC(C)[C@@H]1COC(=O)[C@H](CC(=O)NCc2ccc(Cl)cc2)C/C=C/CCC(=O)N1` .
Reply | 4.64

Ask | If you can, please state the reported pIC50 value of `O=C(C[C@@H]1C/C=C/CCC(=O)O[C@H](c2ccccc2)CNC1=O)NCc1cccc(Cl)c1` .
Reply | 5.30

Ask | If you can, please state the reported pIC50 value of `C[C@H]1[C@@H](c2ccccc2)OC(=O)CC/C=C/C[C@@H](CC(=O)NCc2ccc(Cl)cc2)C(=O)N1C` .
Reply | 5.10

Ask | If you can, please state the reported pIC50 value of `O=C(C[C@@H]1C/C=C/CCC(=O)N[C@H](C2CCCCC2)COC1=O)NCc1ccc(Cl)cc1` .
Reply | 5.30

Ask | If you can, please state the reported pIC50 value of `O=C(C[C@@H]1C/C=C/CCC(=O)N[C@H](c2ccc(F)cc2)COC1=O)NCc1ccc(Cl)cc1` .
Reply | 5.30

Ask | If you can, please state the reported pIC50 value of `C[C@H]1C/C=C\C[C@@H](CC(=O)NCc2ccc(Cl)cc2)C(=O)OC[C@@H](c2ccccc2)NC1=O` .
Reply | 5.40
